Values were extracted from patent US7985740B2.

# Experimental Target: Human Serum Albumin (HSA) (Homo sapiens)
# Construct: purchased Chromtech (Cheshire, UK)
# Sequence (P02768 25-609): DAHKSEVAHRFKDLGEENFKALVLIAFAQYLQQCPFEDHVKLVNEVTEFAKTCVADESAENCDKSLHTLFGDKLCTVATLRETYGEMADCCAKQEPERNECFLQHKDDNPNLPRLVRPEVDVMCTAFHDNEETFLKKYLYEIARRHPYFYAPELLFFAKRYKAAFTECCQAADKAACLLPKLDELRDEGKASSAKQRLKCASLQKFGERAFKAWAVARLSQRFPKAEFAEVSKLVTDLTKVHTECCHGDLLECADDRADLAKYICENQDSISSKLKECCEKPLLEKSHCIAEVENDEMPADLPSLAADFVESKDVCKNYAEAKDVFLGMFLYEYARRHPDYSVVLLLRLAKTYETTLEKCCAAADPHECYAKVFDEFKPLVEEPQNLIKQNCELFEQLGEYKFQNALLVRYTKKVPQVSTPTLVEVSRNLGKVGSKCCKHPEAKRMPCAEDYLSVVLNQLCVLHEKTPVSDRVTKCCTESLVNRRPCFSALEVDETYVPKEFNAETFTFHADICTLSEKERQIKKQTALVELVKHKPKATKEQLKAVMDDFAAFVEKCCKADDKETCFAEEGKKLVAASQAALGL
# Assay Explanation: Human serum albumin (HSA) binding, immobilised HSA HPLC column
# Format: in vitro ADME
# Condition Parameters: derived from the calibration curve, HSA column
Lab note - cut at 0.8 for logK measured: criterion met if strictly below, criterion not met if not.

[
  {
    "Compound": "CN1C(C(=O)Nc2ccccn2)=C(O)c2ccccc2S1(=O)=O",
    "Answer Label": "criterion not met"
  },
  {
    "Compound": "NC(=O)N1c2ccccc2C=Cc2ccccc21 [Carbamazepine]",
    "Answer Label": "criterion met"
  },
  {
    "Compound": "O=C1CN=C(c2ccccn2)c2cc(Br)ccc2N1",
    "Answer Label": "criterion met"
  }
]

## Input Does this compound meet the criterion logK measured < 0.8? `CNC(=C[N+](=O)[O-])NCCSCc1csc(CN(C)C)n1`
## Output criterion met

## Input Consider CCCC1O[C@@H]2C[C@H]3[C@@H]4CCC5=CC(=O)C=C[C@]5(C)[C@H]4[C@@H](O)C[C@]3(C)[C@]2(C(=O)CO)O1 (stereo partly drawn) [Budesonide] . Does its logK measured lie strictly below 0.8?
## Output criterion met

## Input Could you please tell me whether logK measured recorded for COC(=O)C1=C(C)NC(C)=C(C(=O)OCCN(C)Cc2ccccc2)C1c1cccc([N+](=O)[O-])c1 (stereo not drawn) is less than 0.8?
## Output criterion not met
